- TARGET ENTITY: Human immunodeficiency virus type 1 reverse transcriptase (Human immunodeficiency virus 1)
MEASURED ENDPOINT: IC50 (µM)
Please give a number only; it is taken to be in µM.

Task item: I'd like to know its IC50. The compound in question is "Cc1cc(/C=C/C#N)cc(C)c1Oc1nc(NC2CCN(Cc3ccc(S(C)(=O)=O)cc3)CC2)ncc1-c1ccc2c(c1)OCO2"
Reply: 0.161

Task item: Try this compound next: "Cc1cc(/C=C/C#N)cc(C)c1Oc1nc(NC2CCN(Cc3ccc(C(N)=O)cc3)CC2)ncc1-c1cccc(F)c1"
Reply: 0.163

Task item: Try this compound next: "Cc1cc(/C=C/C#N)cc(C)c1Oc1nc(NC2CCN(Cc3ccc(S(N)(=O)=O)cc3)CC2)ncc1-c1cccc(O)c1"
Reply: 0.115

Task item: Try this compound next: "Cc1cc(/C=C/C#N)cc(C)c1Oc1nc(NC2CCN(Cc3ccc(S(C)(=O)=O)cc3)CC2)ncc1-c1ccccc1N"
Reply: 0.178

Task item: Try this compound next: "Cc1cc(/C=C/C#N)cc(C)c1Oc1nc(NC2CCN(Cc3ccc(C(N)=O)cc3)CC2)ncc1-c1ccc(F)cc1"
Reply: 0.13

Task item: Try this compound next: "Cc1cc(/C=C/C#N)cc(C)c1Oc1nc(NC2CCN(Cc3ccc(C(N)=O)cc3)CC2)ncc1-c1ccccc1N"
Reply: 0.122

Task item: Try this compound next: "Cc1cc(/C=C/C#N)cc(C)c1Oc1nc(NC2CCN(Cc3ccc(C(N)=O)cc3)CC2)ncc1-c1cccc(O)c1"
Reply: 0.088

Task item: Try this compound next: "Cc1cc(/C=C/C#N)cc(C)c1Cc1nc(NC2CCN(Cc3ccc(S(C)(=O)=O)cc3)CC2)ncc1-c1cncnc1"
Reply: 0.104

Task item: Try this compound next: "Cc1cc(/C=C/C#N)cc(C)c1Oc1nc(NC2CCN(Cc3ccc(S(C)(=O)=O)cc3)CC2)ncc1-c1cccc(N)c1"
Reply: 0.136

Task item: Try this compound next: "Cc1cc(/C=C/C#N)cc(C)c1Oc1nc(NC2CCN(Cc3ccc(C(N)=O)cc3)CC2)ncc1-c1ccccc1F"
Reply: 0.154

Task item: Try this compound next: "Cc1cc(/C=C/C#N)cc(C)c1Oc1nc(NC2CCN(Cc3ccc(S(N)(=O)=O)cc3)CC2)ncc1-c1ccc(O)cc1"
Reply: 0.091

Task item: Try this compound next: "Cc1cc(/C=C/C#N)cc(C)c1Oc1nc(NC2CCN(Cc3ccc(C(N)=O)cc3)CC2)ncc1-c1ccc(N)cc1"
Reply: 0.108

Task item: Try this compound next: "Cc1cc(/C=C/C#N)cc(C)c1Oc1nc(NC2CCN(Cc3ccc(S(N)(=O)=O)cc3)CC2)ncc1-c1ccccc1F"
Reply: 0.13

Task item: Try this compound next: "Cc1cc(/C=C/C#N)cc(C)c1Oc1nc(NC2CCN(Cc3ccc(S(N)(=O)=O)cc3)CC2)ncc1-c1ccc(F)cc1"
Reply: 0.137

Task item: Try this compound next: "Cc1cc(/C=C/C#N)cc(C)c1Oc1nc(NC2CCN(Cc3ccc(C(N)=O)cc3)CC2)ncc1-c1ccccc1O"
Reply: 0.178

Task item: Try this compound next: "Cc1cc(/C=C/C#N)cc(C)c1Oc1nc(NC2CCN(Cc3ccc(C(N)=O)cc3)CC2)ncc1-c1cccc(N)c1"
Reply: 0.138

Task item: Try this compound next: "Cc1cc(/C=C/C#N)cc(C)c1Oc1nc(NC2CCN(Cc3ccc(C(N)=O)cc3)CC2)ncc1-c1ccc(O)cc1"
Reply: 0.171

Task item: Try this compound next: "Cc1cc(/C=C/C#N)cc(C)c1Cc1nc(NC2CCN(Cc3ccc(S(N)(=O)=O)cc3)CC2)ncc1-c1cnc(N)nc1"
Reply: 0.085

Task item: Try this compound next: "CC(=O)c1ccc(-c2cnc(NC3CCN(Cc4ccc(C(N)=O)cc4)CC3)nc2Oc2c(C)cc(/C=C/C#N)cc2C)cc1"
Reply: 0.175

Task item: Try this compound next: "Cc1cc(/C=C/C#N)cc(C)c1Oc1nc(NC2CCN(Cc3ccc(S(C)(=O)=O)cc3)CC2)ncc1-c1cccc(O)c1"
Reply: 0.164

Task item: Try this compound next: "Cc1cc(/C=C/C#N)cc(C)c1Oc1nc(NC2CCN(Cc3ccc(S(N)(=O)=O)cc3)CC2)ncc1-c1cccc(N)c1"
Reply: 0.134
